// provenance: PubChem BioAssay

# assay info: RAM pathway blockade in budding yeast – dse1pr::URA3 reporter, 5-FOA selection, pilot screen (AID 869);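 also: 0% = DMSO wells with no growth and 100% = 10 µM 1-NA-PP1 with full growth; RAM network block rescues cells from 5-FOA so hits raise OD615 growth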
# condition label: S. cerevisiae dse1pr::URA3 5-FOA growth, OD615, 2 d; at 10 µM; hits give high values; strain carries analog-sensitive mutant Cbk1 kinase
Would you mind telling me the reported inhibition of each entry?
Numbers only, in %.

Answered cases to consult:
> print(dat)
                                   molecule  outcome.measure  observed.value
1       COc1ccc(N2Cc3cccc(C(=O)O)c3C2=O)cc1       inhibition             1.5
2  CSc1cccc(NC(=O)C2CCN(S(=O)(=O)c3ccc(F)cc3)CC2)c1       inhibition            1.71
3  CCC(C)NC(=O)c1cc(CC(C)C)on1 (stereo not drawn)       inhibition           -0.07
4     Cc1cc(N2CCN(C3CCCCC3)CC2)n2nc(C)nc2n1       inhibition            2.16

Dear colleague, could you please provide inhibition for the molecules listed below?
1. Cc1noc(/C=C/N(C)C)c1S(=O)(=O)N1CCCC(C(=O)NCCC2=CCCCC2)C1 (stereo not drawn)
2. COCCn1c(SCC(=O)N2CCc3ccccc32)nc2c(c1=O)SC(C)C2 (stereo not drawn)
3. COC(=O)c1ccc(/C=N/n2cnnc2)cc1
4. CCCc1nnc2n1N=C(c1ccc(-c3cc(Cl)ccc3Cl)o1)CS2

[1.23, 0.465, 0.79, 1.36]

// for each molecule below, give its inhibition
1. COc1ccc(Cl)cc1S(=O)(=O)n1ccnc1C(C)C
2. Cc1ccc(C)n1-c1ccc(N2CCOCC2)cc1
3. CCOC(=O)c1ccc(NS(=O)(=O)c2ccc3c(c2)oc(=O)n3C)cc1
4. COC(=O)CSC1=C(C#N)C(c2ccc(F)cc2)CC(=O)N1 (stereo not drawn)
5. Cc1cc2ncc(-c3ccc(Cl)cc3)c(N)n2n1

1: 1.74; 2: 3.15; 3: 0.865; 4: 0.905; 5: 1.27

Provide inhibition for all items below, preserving their order.
1. CCOC(=O)C1CCN(Cc2ccc(OC)c(C)c2OC)CC1
2. CCN1CCN(C(=O)C2CCN(C(=O)c3cc4sccc4n3CC)CC2)CC1
3. C=CCn1c(SC(C)C(=O)NC2(C#N)CCCCC2)nnc1-c1ccc(OC)cc1 (stereo not drawn)

1: 1.16; 2: 0.53; 3: 1.29
